procedureDetails: yeast display, Sf9 membrane polyspecificity reagent, FACS + sequencing; frameworks hold sequencing errors

{"columns": ["chain", "polyreactivity (PSR sort gate)"],
 "data": [
  ["QVQLVESGGGLVQAGGSLRLSCAASGSNFYSYAMGWYRQAPGKESELVAAITKSSGSTYYAASVKGRFTISRDYAKNTVYLQMNSLKPEDTAVYYCAATRYRPVRLYYWGQGTQVTVSS", "high polyreactivity"],
  ["QVQLVESGGGLVQAGGSLRLSCAASGSIFSHNAMGWYRQAPGKERELVAAISRSGGSTYYADSVKGRFTISRDNAKNTVYLQMKSLKPEDTAVYYCAVRAYKVSRYYYWGQGSQVTVSS", "low polyreactivity"],
  ["QVQLVESGAGLVQAGGILRLSCAASGRTFYRNTMGWYRQAPGKEREFVAAISATAGRTYYADSVKGRFTISRDNAKNTVYLQMNSLKPEDTAVYYCAAVPLRNRLPNSWPALDYWGQGTQVTVSS", "high polyreactivity"],
  ["QVQLVESGGGLVQAGGILRLSCAASGRTLDYSAMGWYRQAPGKERELVASITSGGSTNYADSVKGRFTISRDTAKNTVYLQMNSLKPEDTEVYYCAADSAFYRDVKSNYWGQGTQVTVSS", "low polyreactivity"],
  ["QVQLVESGGGLVQAGGSLRLSCAASGFTFPSYAMGWYRQAPGKERELVAVISRRGGSTYYADSVKGRFTISRDNAKNTVYLQMNSLKPEDTAVYYCNAPYYVFITFDYWGQGTQVTVSS", "high polyreactivity"]
]}
